Let's look at some compounds and their measured IC50.
Tgt: KRAS G12D (Homo sapiens, UniProt P01116+P62937, G12D)
Sequence (P01116 1-169 isoform P01116-2 G12D limits assumed): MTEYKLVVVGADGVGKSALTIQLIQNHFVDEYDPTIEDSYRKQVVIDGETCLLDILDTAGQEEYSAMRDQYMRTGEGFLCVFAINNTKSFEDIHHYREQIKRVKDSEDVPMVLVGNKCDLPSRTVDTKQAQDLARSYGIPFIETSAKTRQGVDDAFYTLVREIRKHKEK
Sequence (P62937 whole entry): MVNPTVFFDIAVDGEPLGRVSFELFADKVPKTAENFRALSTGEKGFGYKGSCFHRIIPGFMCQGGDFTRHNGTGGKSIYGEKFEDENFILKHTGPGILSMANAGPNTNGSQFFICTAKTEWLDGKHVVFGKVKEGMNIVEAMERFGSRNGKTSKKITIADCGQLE
Procedure summary: Ras-Raf disruption / FRET / MOA assay (BRAF RBD)
Format: biochemical
Test conditions: KRAS G12D FRET data IC50, Ras-Raf disruption, with Cyclophilin A

# example entries with known answers
CCn1c(-c2cccnc2[C@H](C)OC)c2c3cc(ccc31)-c1cc(O)cc(c1)C[C@H](NC(=O)[C@H](C(C)C)N(C)C(=O)[C@H](C)N(C)C(=O)[C@H]1CN1)C(=O)N1CCC[C@H](N1)C(=O)OCC(C)(C)C2 = 100 to 1000 nM
CCn1c(-c2cccnc2[C@H](C)OC)c2c3cc(ccc31)-c1cc(O)cc(c1)C[C@H](NC(=O)[C@H](C(C)C)N(C)C(=O)CN(C)C(=O)[C@@H]1CN1CCOC)C(=O)N1CCC[C@H](N1)C(=O)OCC(C)(C)C2 (some centres unmarked) = 100 to 1000 nM
CCn1c(-c2cccnc2[C@H](C)OC)c2c3cc(ccc31)-c1cc(O)cc(c1)C[C@H](NC(=O)[C@H](C(C)C)N(C)C(=O)CN(C)C(=O)[C@H]1CN1Cc1ccccc1F)C(=O)N1CCC[C@H](N1)C(=O)OCC(C)(C)C2 (some centres unmarked) = 100 to 1000 nM
CCn1c(-c2cccnc2[C@H](C)OC)c2c3cc(ccc31)-c1cc(O)cc(c1)C[C@H](NC(=O)[C@H](C(C)C)N(C)C(=O)[C@H]1CCCN1C(=O)[C@@H]1CN1)C(=O)N1CCC[C@H](N1)C(=O)OCC(C)(C)C2 = 100 to 1000 nM

What IC50 value was documented for this compound, CCn1c(-c2cccnc2[C@H](C)OC)c2c3cc(ccc31)-c1cc(O)cc(c1)C[C@H](NC(=O)[C@H](C(C)C)N(C)C(=O)CN(C)C(=O)[C@@H]1N[C@H]1C1COC1)C(=O)N1CCC[C@H](N1)C(=O)OCC(C)(C)C2 ? 10 to 100 nM

Value lookup for IC50; key = CCn1c(-c2cccnc2[C@H](C)OC)c2c3cc(ccc31)-c1cc(O)cc(c1)C[C@H](NC(=O)[C@H](C(C)C)N(C)C(=O)CN(C)C(=O)[C@H]1N[C@H]1C1CCC1)C(=O)N1CCC[C@H](N1)C(=O)OCC(C)(C)C2 100 to 1000 nM

Can you look up the measured IC50 of CCn1c(-c2cccnc2[C@H](C)OC)c2c3cc(ccc31)-c1cc(O)cc(c1)C[C@H](NC(=O)[C@H](C(C)C)N(C)C(=O)C13CC(CN1C(=O)[C@H]1CN1)C3)C(=O)N1CCC[C@H](N1)C(=O)OCC(C)(C)C2 for me? 100 to 1000 nM

May I ask what IC50 has been recorded for CCn1c(-c2cccnc2[C@H](C)OC)c2c3cc(ccc31)-c1cc(O)cc(c1)C[C@H](NC(=O)[C@H](C(C)C)N(C)C(=O)CN(C)C(=O)[C@@H]1N[C@@H]1C(C)C)C(=O)N1CCC[C@H](N1)C(=O)OCC(C)(C)C2 ? 10 to 100 nM

----------
The following molecules are listed with their measured IC50 values.
Tgt: NRAS WT (Homo sapiens, UniProt P01111+P62937)
Sequence (P01111 whole entry): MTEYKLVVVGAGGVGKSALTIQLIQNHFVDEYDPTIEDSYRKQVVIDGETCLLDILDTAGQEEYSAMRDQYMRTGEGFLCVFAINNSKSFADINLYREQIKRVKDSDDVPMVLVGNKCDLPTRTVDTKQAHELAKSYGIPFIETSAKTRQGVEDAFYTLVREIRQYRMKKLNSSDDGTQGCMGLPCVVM
Sequence (P62937 whole entry): as the sequence (P62937 whole entry) above
Procedure summary: Disruption of BRAF RBD interaction with Ras (FRET / MOA assay, with Cyclophilin A)
Assay type: biochemical
Test conditions: NRAS WT; read-out: NRAS WT FRET data IC50

In the examples that follow, each entry is paired with its recorded IC50.
CCn1c(-c2cccnc2[C@H](C)OC)c2c3cc(ccc31)-c1cc(O)cc(c1)C[C@H](NC(=O)[C@H](C(C)C)N(C)C(=O)[C@@H]1CCN[C@@H]1c1ccccc1)C(=O)N1CCC[C@H](N1)C(=O)OCC(C)(C)C2 (atropisomer, axis not shown) = 10 to 100 nM
CCn1c(-c2cc(C3CCN(C)CC3)cnc2[C@H](C)OC)c2c3cc(ccc31)-c1csc(n1)C[C@H](NC(=O)[C@H](C(C)C)N(C)C(=O)N1CC(C3COC3)C1)C(=O)N1CCC[C@H](N1)C(=O)OCC(C)(C)C2 = 10 to 100 nM
CCn1c(-c2cccnc2[C@H](C)OC)c2c3cc(ccc31)-c1csc(n1)C[C@H](NC(=O)[C@H](C(C)C)N(C)C(=O)N1CCN(C(=O)C3COC3)CC1)C(=O)N1CCC[C@H](N1)C(=O)OCC(C)(C)C2 (atropisomer, axis not shown) = 10 to 100 nM
CCn1c(-c2cccnc2[C@H](C)OC)c2c3cc(ccc31)-c1csc(n1)C[C@H](NC(=O)N1CCC[C@@H]1COC)C(=O)N1CCC[C@H](N1)C(=O)OCC(C)(C)C2 (atropisomer, axis not shown) = 100 to 1000 nM
CCn1c(-c2cnccc2COC)c2c3cc(ccc31)-c1cc(O)cc(c1)C[C@H](NC(=O)[C@H](C(C)C)N(C)C(=O)[C@H]1CCN(S(=O)(=O)N3CC(O)C3)C1)C(=O)N1CCC[C@H](N1)C(=O)OCC(C)(C)C2 = 100 to 1000 nM

Attention now turns to another entry.
Which IC50 value is on record for CCn1c(-c2cccnc2[C@H](C)OC)c2c3cc(ccc31)-c1csc(n1)C[C@H](NC(=O)[C@H](C(C)C)N(C)C(=O)N1CCCC13COC3)C(=O)N1CCC[C@H](N1)C(=O)OCC(C)(C)C2 (atropisomer, axis not shown) ? 10 to 100 nM

----------
Measured IC50 accompanies every entry in the list below.
Tgt: NRAS G12C (Homo sapiens, UniProt P01111+P62937, G12C)
Sequence (P01111 whole entry G12C): as the sequence (P01111 whole entry) above, with G12C counted along it
Sequence (P62937 whole entry): as the sequence (P62937 whole entry) above
Procedure summary: Disruption of BRAF RBD interaction with Ras (FRET / MOA assay, with Cyclophilin A)
Assay type: biochemical
Test conditions: NRAS G12C; read-out: NRAS G12C FRET data IC50

Look over these answered cases.
CCn1c(-c2cccnc2[C@H](C)OC)c2c3cc(ccc31)-c1csc(n1)C[C@H](NC(=O)[C@H](C(C)C)N(C)C(=O)N1CC(C)(OC)C1)C(=O)N1CCC[C@H](N1)C(=O)OCC(C)(C)C2 = 100 to 1000 nM
CCn1c(-c2cccnc2[C@H](C)OC)c2c3cc(ccc31)-c1csc(n1)C[C@H](NC(=O)[C@H](C(C)C)N(C)C(=O)N1CC([C@@H](C)N(C)C)C1)C(=O)N1CCC[C@H](N1)C(=O)OCC(C)(C)C2 (atropisomer, axis not shown) = 10 to 100 nM
CCn1c(-c2cccnc2[C@H](C)OC)c2c3cc(ccc31)-c1csc(n1)C[C@H](NC(=O)[C@H](C(C)C)N(C)C(=O)N1CCCC13COC3)C(=O)N1CCC[C@H](N1)C(=O)OCC(C)(C)C2 (atropisomer, axis not shown) = 10 to 100 nM

Field: next compound
What value of IC50 has been reported for the following compound? CCn1c(-c2cccnc2[C@H](C)OC)c2c3cc(ccc31)-c1csc(n1)C[C@H](NC(=O)[C@H](C(C)C)N(C)C(=O)N(C)CC(C)C)C(=O)N1CCC[C@H](N1)C(=O)OCC(C)(C)C2 100 to 1000 nM

----------
Reported pIC50 values are given for each entry in this list.
Tgt: NRAS Q61R (Homo sapiens, UniProt P01111+P62937, Q61R)
Sequence (P01111 whole entry Q61R): as the sequence (P01111 whole entry) above, with Q61R counted along it
Sequence (P62937 whole entry): as the sequence (P62937 whole entry) above
Procedure summary: Disruption of BRAF RBD interaction with Ras (FRET / MOA assay, with Cyclophilin A)
Format: biochemical
Test conditions: NRAS Q61R; read-out: NRAS Q61R FRET data IC50
pIC50: −log10 of the molar value.

Here's what some known entries look like.
C=CC(=O)N1CC[C@H](C(=O)N(C)[C@H](C(=O)N[C@H]2Cc3cc(O)cc(c3)-c3ccc4c(c3)c(c(-c3cccnc3)n4C3CC3)CC(C)(C)COC(=O)[C@@H]3CCCN(N3)C2=O)C(C)C)C1 [Example A160] = < 5.00
CCn1c(-c2cccnc2[C@H](C)OC)c2c3cc(ccc31)-c1csc(n1)C[C@H](NC(=O)[C@H](C(C)C)N(C)C(=O)N1CC3(CCCO3)C1)C(=O)N1CCC[C@H](N1)C(=O)OCC(C)(C)C2 (atropisomer, axis not shown) [Example A522] = 6.00 to 7.00
CCn1c(-c2cccnc2[C@H](C)OC)c2c3cc(ccc31)-c1cc(O)cc(c1)C[C@H](NC(=O)C(C)Cc1ccncc1)C(=O)N1CCC[C@H](N1)C(=O)OCC(C)(C)C2 (some centres unmarked) [Example A179] = 5.00 to 6.00

Item under review: CCn1c(-c2cccnc2[C@H](C)OC)c2c3cc(ccc31)-c1csc(n1)C[C@H](NC(=O)[C@H](C(C)C)N(C)C(=O)N1CC3(CC(N(C)CCO)C3)C1)C(=O)N1CCC[C@H](N1)C(=O)OCC(C)(C)C2 (atropisomer, axis not shown) [Example A467] . Reported pIC50? 6.00 to 7.00

# get_value(readout='pIC50', item= CCn1c(-c2cnccc2COC)c2c3cc(ccc31)-c1cc(O)cc(c1)C[C@H](NC(=O)[C@H](C(C)C)N1COCC1=O)C(=O)N1CCC[C@H](N1)C(=O)OCC(C)(C)C2 [Example A102] ) 6.00 to 7.00

The reported numbers originate from patent US20230233569A1.
